Each recorded value in this set is attributed to patent US7504420B2.

target: memapsin 2 (Homo sapiens, UniProt P56817); experiment: Inhibition of memapsin 2 catalytic activity (Ki); type: biochemical; conditions: memapsin 2, pH 4, 37° C.; read-out: M2K
Sequence (P56817 46-501): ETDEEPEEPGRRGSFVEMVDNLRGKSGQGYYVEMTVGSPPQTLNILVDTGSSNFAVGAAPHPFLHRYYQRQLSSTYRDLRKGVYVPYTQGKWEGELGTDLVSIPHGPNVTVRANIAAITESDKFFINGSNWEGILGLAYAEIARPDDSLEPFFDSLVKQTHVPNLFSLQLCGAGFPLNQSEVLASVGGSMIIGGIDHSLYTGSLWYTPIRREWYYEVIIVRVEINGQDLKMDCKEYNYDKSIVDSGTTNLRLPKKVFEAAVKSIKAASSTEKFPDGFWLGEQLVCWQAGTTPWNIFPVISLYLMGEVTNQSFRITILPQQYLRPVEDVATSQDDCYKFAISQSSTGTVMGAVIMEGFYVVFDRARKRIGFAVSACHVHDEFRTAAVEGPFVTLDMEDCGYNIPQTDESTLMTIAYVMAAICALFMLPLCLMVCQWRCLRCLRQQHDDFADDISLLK
RECORDED ENDPOINT: Ki

Some compounds with known Ki results, for comparison:
>>> result("CC(NCC(O)C(Cc1ccccc1)NC(=O)c1cc(C(=O)NC(C)c2ccccc2)cc(N(C)S(C)(=O)=O)c1)c1cccc(F)c1 (stereo not drawn)")
"< 0.3 µM"
>>> result("COc1cccc(CNCC(O)C(Cc2cscn2)NC(=O)c2cc(C(=O)NC(C)c3ccccc3)cc(N(C)S(C)(=O)=O)c2)c1 (stereo not drawn)")
"< 0.3 µM"

For each entry beneath this line, provide reported Ki.
1. CCc1csc(CN(C)C(=O)c2cccc(C(=O)NC(Cc3ccccc3)C(O)CNCc3cccc(OC)c3)c2)n1 (stereo not drawn)
2. Cc1csc(CN(C)C(=O)c2cccc(C(=O)NC(Cc3ccccc3)C(O)CNCc3cncc(OC(C)C)c3)c2)n1 (stereo not drawn)
3. CC(C)NC(=O)c1cccc(CNCC(O)C(Cc2ccccc2)NC(=O)c2cc(C(=O)NC(C)c3ccccc3)cc(N(C)S(C)(=O)=O)c2)c1 (stereo not drawn)
4. CC(NC(=O)c1cc(C(=O)NC(Cc2ccccc2)C(O)CNCCN2CCOCC2)cc(N(C)S(C)(=O)=O)c1)c1ccccc1 (stereo not drawn)
5. Cc1csc(CN(C)C(=O)c2cccc(C(=O)NC(Cc3ccccc3)C(O)CNCc3cncc(OCC(C)C)c3)c2)n1 (stereo not drawn)

**Result**
< 0.3 µM
< 0.3 µM
> 0.501 µM
0.301 to 0.5 µM
< 0.3 µM

For each entry beneath this line, provide reported Ki.
1. CC(NC(=O)c1cc(C(=O)NC(Cc2ccccc2)C(O)CNCc2ccccn2)cc(N(C)S(C)(=O)=O)c1)c1ccccc1 (stereo not drawn)
2. COc1cccc(C(C)NCC(O)C(Cc2ccccc2)NC(=O)c2cccc(C(=O)N(C)Cc3nc(C)cs3)c2)c1 (stereo not drawn)
3. COc1cccc(CNCC(O)C(Cc2ccccc2)NC(=O)c2cccc(C(=O)N(C)Cc3nc(C)oc3C)c2)c1 (stereo not drawn)
4. COc1cccc(C(C)NCC(O)C(Cc2ccccc2)NC(=O)c2cc(C(=O)NC(C)c3cccc(OC)c3)cc(N(C)S(C)(=O)=O)c2)c1 (stereo not drawn)

**Result**
1. < 0.3 µM
2. < 0.3 µM
3. < 0.3 µM
4. < 0.3 µM

###

biological target: memapsin 2 (Homo sapiens, UniProt P56817); assay: Inhibition of memapsin 2 catalytic activity (Ki); type: biochemical; settings: memapsin 2, pH 4, 37° C.; read-out: M2K
RECORDED ENDPOINT: Ki

>>> result("Cc1csc(CN(C)CC(O)C(Cc2ccccc2)NC(=O)c2cc(C(=O)NC(C)c3ccccc3)cc(N(C)S(C)(=O)=O)c2)n1 (stereo not shown)")
"> 501 nM"
>>> result("Cc1csc(CN(C)C(=O)c2cccc(C(=O)NC(Cc3ccccc3)C(O)CNCc3cccc(OC(F)(F)F)c3)c2)n1 (stereo not shown)")
"< 300 nM"
>>> result("CC(NC(=O)c1cc(C(=O)NC(Cc2ccccc2)C(O)CNCC2CCCN2C)cc(N(C)S(C)(=O)=O)c1)c1ccccc1 (stereo not shown)")
"> 501 nM"
>>> result("Cc1ccc(CNCC(O)C(Cc2ccccc2)NC(=O)c2cccc(C(=O)N(C)Cc3nc(C)cs3)c2)cc1 (stereo not shown)")
"> 501 nM"

For each entry beneath this line, provide reported Ki.
1. CC(NC(=O)c1cc(C(=O)NC(Cc2ccccc2)C(O)CNCC2CCN(C(=O)OCc3ccccc3)CC2)cc(N(C)S(C)(=O)=O)c1)c1ccccc1 (stereo not shown)
2. Cc1csc(CNCC(O)C(Cc2ccccc2)NC(=O)c2cc(C(=O)NC(C)c3ccccc3)cc(N(C)S(C)(=O)=O)c2)n1 (stereo not shown)
3. COc1ccc(S(=O)(=O)NCC(O)C(Cc2ccccc2)NC(=O)c2cc(C(=O)NC(C)c3ccccc3)cc(N(C)S(C)(=O)=O)c2)cc1 (stereo not shown)

**Result**
< 300 nM
< 300 nM
> 501 nM
